- Test system: SARS-CoV-2 (Vic 01)
- assay-procedure: microbe, parasite or virus in culture
- Type: cell-based
- condition-notes: Severe acute respiratory syndrome coronavirus 2, Vero, 72 h, read-out: IC50 calculated from virus titration (TCID50 data)
assay-readout: pIC50
One number for each entry, as −log10 of the molar value.

Q. Recorded pIC50 of C=C1CCC2[C@@](C)(CC[C@@H](O)[C@@]2(C)CO)C1C/C=C1/C(=O)OCC1O (stereo partly shown) , please.
A. 5.49
